# test_summary: Lipophilicity, logP of compound
# Assay type: physicochemical
# condition: octanol/water
Catalogue of logP readings, one per entry.
Respond using a number only.

smiles_string=c1ccc2c(c1)CC(NCc1c(-c3ccc4ccccc4c3)nc3occn13)C2 assay_result=4.62

Exercise: Given Clc1ccc(-c2nc3sccn3c2/C=N/OCc2ccc(Cl)c(Cl)c2)cc1 , state its recorded logP.
Key: 7.26

###

# tgt: UniProt Q14994
# Sequence (Q14994 whole entry): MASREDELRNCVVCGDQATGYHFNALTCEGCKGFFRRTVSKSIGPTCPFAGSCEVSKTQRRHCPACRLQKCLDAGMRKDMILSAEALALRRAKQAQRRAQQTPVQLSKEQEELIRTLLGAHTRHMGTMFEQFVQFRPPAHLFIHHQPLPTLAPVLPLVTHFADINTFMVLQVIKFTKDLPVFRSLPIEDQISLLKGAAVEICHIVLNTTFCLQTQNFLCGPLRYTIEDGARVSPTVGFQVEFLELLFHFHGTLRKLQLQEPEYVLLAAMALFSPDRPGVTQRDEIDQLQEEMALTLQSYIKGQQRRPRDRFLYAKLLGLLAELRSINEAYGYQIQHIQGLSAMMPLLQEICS
# test_summary: Agonist activity at human constitutive androstane receptor expressed in HepG2 cells co-expressing CYP2B6 incubated for 23 hrs by One-Glo luciferase reporter gene assay
# Format: cell-based
pEC50: −log10 of the molar value.
Criterion: pEC50 meeting or surpassing 6. Met: T. Not met: F.

smiles_string=CC(C)(C)c1ccc(-c2nc3sccn3c2CNCCc2ccc(Cl)c(Cl)c2)cc1 classification=F
smiles_string=Clc1ccc(-c2nc3sccn3c2CNc2ccc3ccccc3c2)cc1 classification=F
smiles_string=Clc1ccc(-c2nc3sccn3c2CNC2Cc3ccccc3C2)cc1 classification=T
smiles_string=Fc1ccc(-c2nc3sccn3c2CNCCc2ccc(Cl)c(Cl)c2)cc1 classification=T
smiles_string=Cc1ccc(-c2nc3sccn3c2CNCCc2ccc(Cl)c(Cl)c2)cc1 classification=T

Exercise: State whether the measured pEC50 reaches 6, counting equality as reaching it, for Clc1ccc(-c2nc3sccn3c2CNCCc2ccc(Cl)c(Cl)c2)cc1
Key: T

Exercise: State whether the measured pEC50 reaches 6, counting equality as reaching it, for Cc1cn2c(CNCCc3ccc(Cl)c(Cl)c3)c(-c3ccc(Cl)cc3)nc2s1
Key: F

Exercise: State whether the measured pEC50 reaches 6, counting equality as reaching it, for Clc1ccc(CCNCc2c(-c3ccc(Br)cc3)nc3sccn23)cc1Cl
Key: T

Exercise: State whether the measured pEC50 reaches 6, counting equality as reaching it, for Fc1ccc(CCNCc2c(-c3ccc(Cl)cc3)nc3sccn23)cc1
Key: F

Exercise: State whether the measured pEC50 reaches 6, counting equality as reaching it, for Oc1ccc(CCNCc2c(-c3ccc(Cl)cc3)nc3sccn23)cc1
Key: F

Exercise: State whether the measured pEC50 reaches 6, counting equality as reaching it, for Clc1ccc(-c2nc3sccn3c2/C=N/CCc2ccc(Cl)c(Cl)c2)cc1
Key: F

Exercise: State whether the measured pEC50 reaches 6, counting equality as reaching it, for c1ccc2c(c1)CC(NCc1c(-c3ccc4ccccc4c3)nc3sccn13)C2
Key: F

Exercise: State whether the measured pEC50 reaches 6, counting equality as reaching it, for CCc1nc2sccn2c1CNCCc1ccc(Cl)c(Cl)c1
Key: F

Exercise: State whether the measured pEC50 reaches 6, counting equality as reaching it, for Clc1ccc(-c2nc3sccn3c2CNCCc2ccc(Br)cc2)cc1
Key: F

Exercise: State whether the measured pEC50 reaches 6, counting equality as reaching it, for Clc1ccc(-c2nc3sccn3c2CNCCc2c[nH]c3ccccc23)cc1
Key: F

Exercise: State whether the measured pEC50 reaches 6, counting equality as reaching it, for FC(F)(F)c1ccc(-c2nc3sccn3c2CNCCc2ccc(Cl)c(Cl)c2)cc1
Key: F

Exercise: State whether the measured pEC50 reaches 6, counting equality as reaching it, for Clc1ccc(CCNCc2c(-c3ccccc3)nc3sccn23)cc1Cl
Key: T

Exercise: State whether the measured pEC50 reaches 6, counting equality as reaching it, for Clc1ccc(-c2nc3sccn3c2CNCCc2cccc(Cl)c2)cc1
Key: F

Exercise: State whether the measured pEC50 reaches 6, counting equality as reaching it, for c1ccc(CCNCc2c(-c3ccc4ccccc4c3)nc3sccn23)cc1
Key: F

Exercise: State whether the measured pEC50 reaches 6, counting equality as reaching it, for Clc1ccc(CCNCc2c(-c3ccc(Cl)cc3)nc3sccn23)cc1
Key: T

Exercise: State whether the measured pEC50 reaches 6, counting equality as reaching it, for Clc1ccc(-c2nc3sccn3c2CNCc2ccccc2)cc1
Key: F

Exercise: State whether the measured pEC50 reaches 6, counting equality as reaching it, for Clc1ccc(-c2nc3sccn3c2COCCc2ccc(Cl)c(Cl)c2)cc1
Key: T
